# Tested on: MOLT-4 leukemia
# ASSAY_NOTES: NCI-60 one-dose screen, 48 h (100 = growth as untreated, 0 = no growth, -100 = all killed)
# CONDITION_LABEL: 10 µM unless noted
About 83,000 compounds went through this panel and 20% of them were active in at least one assay; those are over-represented in the sample as a whole.
Catalogue of growth readings, one per entry.
Numbers only here, please. The scale is %.

State its growth for this molecule: "CC1=C2[C@@H](CC1)[C@]1(C)O[C@@](c3ccccc3)(C[C@H]1OC(=O)CO)[C@H]2OC(=O)/C=C/c1ccccc1"
70.8

Tell us which growth value is on record for "FC(F)(F)Oc1cccc(-c2cnc3ccc(-c4ccncc4)nn23)c1"
4.08

Give a short answer stating reported growth for "CN1CCN(Cc2ccc(NC(=O)c3cncc(C#Cc4cnc(N)c5ccc(F)cc45)c3)cc2C(F)(F)F)CC1" .
13.1

Give the reported value of growth for this record: CC(C)N1C(=O)/C(=c2\sc3n(c2=O)C2C(NN=3)N(C)C(=O)N2C)c2ccccc21 (stereo not given)
71.5

Report growth, nothing else, for this molecule: "COc1ccc2c(c1)c(/C(O)=C1\COC(=O)C1=O)cn2Cc1ccc(F)cc1"
112

Complete the entry with growth for Nc1nc2c(c3ncccc13)C(c1cccc(Cl)c1)Cc1ncccc1-2 (stereo not given)
14.5

###

# Test system: MDA-MB-231 breast
# ASSAY_NOTES: NCI-60 one-dose screen, 48 h (100 = growth as untreated, 0 = no growth, -100 = all killed)
# CONDITION_LABEL: 10 µM unless noted
Compounds without any hit were thinned out: in the full panel of roughly 83,000, 20% have a hit.
// growth lookup, one value per entry
// units = %; emit number, no label

[
  {
    "COMPOUND": "Cn1cc(-c2nn3cc(-c4cccs4)nc3s2)c2cc(F)ccc21",
    "growth / %": 34.5
  }
]

Identify growth associated with the compound CCN1C(=O)N(CC)C2Nn3c(s/c(=C\c4ccccc4Br)c3=O)=NC21 (centres undefined)
19.7

Report growth, nothing else, for this compound: "COc1ccc(N2CCN(C(=O)c3sc4nc(C)c(Br)c(C)c4c3N)CC2)cc1"
84.2

Please give the documented growth of "Cc1nnc(-c2ccc3c(c2)nc(/C=C/c2ccccc2)n3C2CCCCC2)o1"
87.3

Output measured growth for this item: "Clc1ccccc1-c1cnn2cc(-c3ccccc3)cnc12"
72.4

Check the records and state growth for "Cc1ccc(S(=O)(=O)c2nc(-c3ccccc3)oc2Sc2nc3ccccc3s2)cc1"
75.3

Let me know recorded growth for Cc1nn(-c2cc(NC3CCC(O)CC3)c3c(=O)[nH]c(CCC(F)(F)F)cc3c2)c2c1C(=O)CC(C)(C)C2 (centres undefined) , thanks.
42

# return recorded growth for input "CC1=C2[C@@H](CC1)[C@]1(C)O[C@@](C3CCCCC3)(C[C@H]1OC(=O)CO)[C@H]2OC(=O)/C=C/c1ccccc1"
86.4

Answer with the recorded growth for the compound listed here: "S=c1[nH]c(=S)c2c(-c3ccccc3)c(-c3ccccc3)oc2[nH]1"
99

Input "CNCc1cccc2c1OCCOCCOCCNS(=O)(=O)c1ccc(cc1)-c1cnc(N)c(n1)C(=O)N2" , output reported growth.
30.4

# return recorded growth for entry CNC1=C([N+](=O)[O-])C(c2ccc(OC)cc2)C(C#N)=C(c2cccs2)O1 (centres undefined)
99.5

Dear colleague, please send me the reported growth for "CN1CCN(C(=S)SCCCCOc2cc(=O)oc3ccccc23)CC1" when you can.
89.1

State its growth: "CCNC(=O)Oc1ccc(/C(=C(/CC)Cc2ccccc2)c2ccc(OCCN3CCCC3)cc2)cc1"
80.1

Quote growth reported for "O=C(CCCCCCN1CC(=O)N2[C@H](c3ccc(Br)cc3)c3[nH]c4ccccc4c3C[C@@H]2C1=O)NO" please.
43.7

Please give measured growth of the following entry: "O=C(Nc1ccc(Br)cc1)C1=NCCCCN1"
92.1

Please look at this compound and report its growth: "Ic1ccccc1I"
111

Consider the compound "NS(=O)(=O)c1ccc(NC(=O)/C(=C\c2ccc(Cl)cc2Cl)NC(=O)c2ccccc2)cc1" . State its measured growth.
105

Quick one: give measured growth for "C#CCO[C@H]1CC(CC#C)(CC#C)C(=O)[C@@H]2[C@H]1[C@H]1C[C@@H]3[C@@]4(C)CCC[C@@](C)(C(=O)OC)[C@@H]4CC[C@@]23C=C1C(C)C"
89.3

Please look at this compound and report its growth: "CN1CCN(c2ccc(NC(=O)c3cncnc3Nc3ccc(OCc4cccc(F)c4)c(Cl)c3)cc2)CC1"
-13.3
